Measured Biacore human ROR1-Fz ka, listed per entry.
TESTED TARGET: T1, human ROR1-Fz (Homo sapiens, UniProt Q01973)
T1 construct: Frizzled (Fz, residues 165-305); HIS6 (C); purchased Acro Biosystems; host or cells: HEK293
T1 sequence (Q01973 165-305): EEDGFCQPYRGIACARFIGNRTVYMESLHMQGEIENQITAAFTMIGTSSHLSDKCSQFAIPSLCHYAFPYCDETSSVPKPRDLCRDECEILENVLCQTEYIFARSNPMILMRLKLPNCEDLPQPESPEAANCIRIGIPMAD
TEST DETAILS: Biacore off-rate and kinetic analysis, ROR1 frizzled domain
Type: binding
CONDITION: Table 11 (SP34 light chain)
VALUE KIND: Biacore human ROR1-Fz ka

MOLECULE	VALUE
SRP2196-B06 (antibody, V domains shown) VH: EVQLVESGGGLVQPGGSLRLSCAASGFNITGYYIHWVRQAPGKGLEWVGQISPNSGSTYSADSVKGRFTISADTSKNTAYLQMNSLRAEDTAVYYCARDSRRYVLSWDYWGQGTLVTVSS VL: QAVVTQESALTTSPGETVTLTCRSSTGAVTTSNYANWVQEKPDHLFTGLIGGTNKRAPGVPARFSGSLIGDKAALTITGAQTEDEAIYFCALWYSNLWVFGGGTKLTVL	142000 M⁻¹ s⁻¹
SRP2196-A04 (antibody, V domains shown) VH: EVQLVESGGGLVQPGGSLRLSCAASGFNISPYYIHWVRQAPGKGLEWVGQIYPISGHTYQADSVKGRFTISADTSKNTAYLQMNSLRAEDTAVYYCARESRRYVGPFGYWGQGTLVTVSS VL: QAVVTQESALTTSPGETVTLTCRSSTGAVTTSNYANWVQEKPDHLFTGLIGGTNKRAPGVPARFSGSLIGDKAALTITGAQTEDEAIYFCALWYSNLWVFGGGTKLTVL	139000 M⁻¹ s⁻¹
